Test system: Sonic hedgehog protein (Shh)
methodDescription: small-molecule binders of Shh protein, primary screen, biochemical, small-molecule microarray, 635/667 nm fluorescence (AID 1151);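 also: Shh protein binding to compounds spotted on small-molecule microarray slides; score combines spot fluorescence intensity with signal-to-noise across triplicate slides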
runParameters: small-molecule microarray binding, 635 nm fluorescence; higher = more signal
The entries below are paired with their reported composite z-score.
Keep it simple and answer with nothing but the number.

Answered examples (2):
| molecule | measuredTarget | number |
| --- | --- | --- |
| C=CCOC(=O)[C@H]1[C@@H]2C(=O)O[C@@H](c3ccccc3)[C@@H](c3ccccc3)N2[C@@H](c2ccc(OCCOC(=O)[C@H]3C[C@H]4C(=O)NCC(=O)N4[C@H]3c3ccc(O)cc3)cc2)[C@]12C(=O)Nc1ccc(I)cc12 | Sonic hedgehog protein (Shh) | 1.55 |
| CCOC(=O)C1=CC[C@@H](c2ccccc2)N(S(=O)(=O)C[Si](C)(C)C)[C@H]1c1ccccc1 | Sonic hedgehog protein (Shh) | 0.257 |

Report measured composite z-score; entry is CN1C(=O)[C@]2(CCC(=O)OC(C)(C)C)N=C(c3ccc(OCCCO)cc3)O[C@@H]2c2ccccc21
2.11

Report measured composite z-score; entry is CC1(C)OC[C@@]23C=C(Br)[C@@H](C[C@H]12)[C@@]1(CO1)C3=O
0.474

Report measured composite z-score; entry is CN(C)C(=O)[C@@]1(CCS(=O)(=O)c2ccccc2)N=C(c2ccc(OCCCO)cc2)O[C@H]1c1ccccc1N=[N+]=[N-]
-0.337

Report measured composite z-score; entry is COc1ccc(C(O)C2C=CC3C(=O)N(C)C(=O)C3N2Nc2ccc([N+](=O)[O-])cc2[N+](=O)[O-])cc1OCc1ccccc1 (stereo not given)
-0.105

Report measured composite z-score; entry is CCCC[C@H]1OB(O)C[C@H]2C1=C(C)C[C@H]1C(=O)C=CC(=O)[C@H]12
1.71
